Biological target: FAD-linked sulfhydryl oxidase ALR (Homo sapiens) (UniProt P55789)
Sequence (P55789 whole entry, looked up): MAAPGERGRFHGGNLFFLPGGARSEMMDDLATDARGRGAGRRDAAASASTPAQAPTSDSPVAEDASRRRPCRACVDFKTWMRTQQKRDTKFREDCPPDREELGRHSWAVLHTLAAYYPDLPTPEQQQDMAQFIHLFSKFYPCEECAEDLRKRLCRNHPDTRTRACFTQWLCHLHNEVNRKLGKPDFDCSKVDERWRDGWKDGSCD
Assay: ALR-catalysed DTT oxidation blockers – biochemical, H2O2 detection, HRP-luminol luminescence, single point, primary screen (AID 485317)
Conditions: purified ALR, active compounds read high, concentration not given here
Screen size: about 290,000 compounds; about 11,000 (3.8%) were called active. The full list was thinned out, with actives kept by preference.

>  <Molecule>
Cc1noc(C)c1C(=O)OC(C)C(=O)Nc1ccc2c(c1)OCO2 (centres undefined)

>  <inhibition [%]>
-0.736

$$$$
>  <Molecule>
O=C(O)c1cccc(NC(=S)N/N=C/c2c[nH]c3ccccc23)c1

>  <inhibition [%]>
98.2

$$$$
>  <Molecule>
CC(Sc1ncnc2c1cnn2-c1ccccc1)C(=O)Nc1ccc(N2CCOCC2)cc1 (centres undefined)

>  <inhibition [%]>
-5.27

$$$$
>  <Molecule>
O=S(=O)(O)Oc1c[nH]c2ccccc12

>  <inhibition [%]>
-3.63

$$$$
>  <Molecule>
O=C(Nc1ccccc1C(=O)O)c1ccc(N2C(=O)C3CC=CCC3C2=O)cc1 (centres undefined)

>  <inhibition [%]>
2.58

$$$$
>  <Molecule>
Cc1ccc(CC(=O)Nc2ccc(S(=O)(=O)N3CCOCC3)cc2)cc1C

>  <inhibition [%]>
-2.53

$$$$
>  <Molecule>
O=C1C=C(c2cccc(Cl)c2)C[C@@H](c2ccc(F)cc2)C1

>  <inhibition [%]>
-8.67

$$$$
>  <Molecule>
O=C(COC(=O)c1ccc(O)cc1O)c1ccc2c(c1)OCCO2

>  <inhibition [%]>
9.5

$$$$
>  <Molecule>
CCCCn1c(N)c(N(CCOC)C(=O)c2cccc(OCc3ccccc3)c2)c(=O)[nH]c1=O

>  <inhibition [%]>
-0.129

$$$$
>  <Molecule>
CC(C)n1ncc2c(C(=O)NCc3ccccc3CN(C)C)cc(C3CC3)nc21

>  <inhibition [%]>
-20.5

$$$$
>  <Molecule>
COc1cccc(NC(=O)NCc2ccc(F)cc2)c1

>  <inhibition [%]>
-2.14

$$$$
>  <Molecule>
O=C(N[C@@H]1C/C=C\C[C@@H](CC(=O)N(CCO)Cc2ccccc2)C(=O)N[C@H](Cc2ccccc2)COC1=O)OCC1c2ccccc2-c2ccccc21

>  <inhibition [%]>
5.13

$$$$
>  <Molecule>
Cc1cccc(NC(=S)N2CCC(c3nc4ccccc4s3)CC2)c1

>  <inhibition [%]>
-3.53

$$$$
>  <Molecule>
O=C(N/N=C/c1c[nH]c2ccccc12)c1ccccc1O

>  <inhibition [%]>
41.8

$$$$
>  <Molecule>
COc1ccc(CNC(=O)Cc2ccc(-c3ccccc3)cc2)cc1OC

>  <inhibition [%]>
-4.45

$$$$
>  <Molecule>
Cc1cccc(C(=O)N2CCC(c3nc4ccccc4s3)CC2)c1

>  <inhibition [%]>
-11.6

$$$$
>  <Molecule>
COc1cc(C(=O)Nc2ncccc2C)ccc1OCC(=O)N1CCOCC1

>  <inhibition [%]>
-1.3

$$$$
>  <Molecule>
O=C(O)c1ccccc1C(=O)Nc1nc(-c2ccccc2)cs1

>  <inhibition [%]>
-5.73

$$$$
>  <Molecule>
CC1=C(C(=O)NC2CC(C)(C)Cc3c2cnn3-c2ccc(C)cc2)OCCO1 (centres undefined)

>  <inhibition [%]>
-16.8

$$$$
>  <Molecule>
Nc1ccccc1Sc1cc(Cl)nnc1Cl

>  <inhibition [%]>
1.19

$$$$
>  <Molecule>
COc1cccc2sc(NNC(=O)c3nc4ccccc4s3)nc12

>  <inhibition [%]>
93.7

$$$$
>  <Molecule>
CC1CCCN(C(=O)CN2C(=O)c3ccccc3S2(=O)=O)C1 (centres undefined)

>  <inhibition [%]>
-1.06

$$$$
>  <Molecule>
CC(=O)Nc1cccc(-c2nc3ccccc3s2)c1C

>  <inhibition [%]>
-21

$$$$
>  <Molecule>
CCOc1ccc(/C=C/C(=O)OCC(=O)c2ccccc2OC)cc1OC

>  <inhibition [%]>
1.49

$$$$
>  <Molecule>
O=C(Nc1cccc(NC(=O)N2CCN(c3ccccc3)CC2)c1)N1CCN(c2ccccc2)CC1

>  <inhibition [%]>
-1.81

$$$$
>  <Molecule>
COc1ccc(CCNC(=O)CS(=O)(=O)Cc2nc(-c3ccc(C)cc3)oc2C)cc1OC

>  <inhibition [%]>
21.5

$$$$
>  <Molecule>
CC(=O)C12CC(C)=C(C)CC1CC1C3CCC4=CC(=O)CCC4(C)C3CCC12C (centres undefined)

>  <inhibition [%]>
-1.17

$$$$
>  <Molecule>
O=C(NN=Cc1ccc(N2CCOCC2)cc1)c1cc2ccccc2cc1O

>  <inhibition [%]>
11.6

$$$$
>  <Molecule>
Cc1nn(C)c(C)c1Sc1ccccc1N

>  <inhibition [%]>
99.2

$$$$
>  <Molecule>
COCOc1cc(O)c(C(=O)/C=C/c2ccc(OCOC)c(OCOC)c2)c(OCOC)c1

>  <inhibition [%]>
94.9

$$$$
>  <Molecule>
Cc1cccc(NS(=O)(=O)c2ccc(C)c(C(=O)NCC(c3ccccc3)N(C)C)c2)c1 (centres undefined)

>  <inhibition [%]>
-16.5

$$$$
>  <Molecule>
CC(=O)NC12CC3CC(C1)CC(C(=O)N1CCN(C(=O)c4ccco4)CC1)(C3)C2

>  <inhibition [%]>
-2.95

$$$$
>  <Molecule>
Cc1ccc(CN2CCN(c3ccccc3Cl)CC2)o1

>  <inhibition [%]>
2

$$$$
>  <Molecule>
COc1ccc2oc(C(=O)OCC(=O)N(CC(C)C)c3c(N)n(Cc4ccccc4)c(=O)[nH]c3=O)c(C)c2c1

>  <inhibition [%]>
7.4

$$$$
>  <Molecule>
Cc1ccc(C)c(S(=O)(=O)N2CCN(c3ncnc4sccc34)CC2)c1

>  <inhibition [%]>
-13.7

$$$$
>  <Molecule>
CC(C)c1ccc(/C=C/C(=O)NNC(=O)c2cccnc2)cc1

>  <inhibition [%]>
3.18

$$$$
>  <Molecule>
COc1ccccc1OCc1nc2ccccc2s1

>  <inhibition [%]>
2.66

$$$$
>  <Molecule>
Cc1ccc(NC2(C#N)C(=O)Nc3ccccc32)cc1 (centres undefined)

>  <inhibition [%]>
97.6

$$$$
>  <Molecule>
Cc1ccc(CCC(=O)Nc2ncc(Cc3cc(Cl)ccc3Cl)s2)o1

>  <inhibition [%]>
53.6

$$$$
>  <Molecule>
CSc1ccc(NC(=O)/C=C/C(=O)O)cc1

>  <inhibition [%]>
0.113

$$$$
>  <Molecule>
O=C(CSc1ncn[nH]1)Nc1ccc(Br)cc1Br

>  <inhibition [%]>
-5.94

$$$$
>  <Molecule>
O=c1oc(-c2ccco2)nc2sc3c(c12)CCCCC3

>  <inhibition [%]>
88.4

$$$$
>  <Molecule>
O=S(=O)(c1ccc(Cl)cc1)c1nc(-c2ccco2)oc1N1CCCCC1

>  <inhibition [%]>
5.77

$$$$
>  <Molecule>
O=C(/C=C/c1ccc(F)cc1)NCCNC(=O)/C=C/c1ccc(F)cc1

>  <inhibition [%]>
-1.46

$$$$

Sourced from PubChem BioAssay AID485317
